// reported HSL mRNA for each item listed
Test system: HSL
run.description: HSL mRNA expression in adipocytes (real-time PCR)
Format: cell-based, human
setup.conditions: Table 18; differentiating adipocytes; control = treatment with ISIS 342673
In the oligonucleotide strings, read from the 5' end, every base follows the letter of its sugar. An asterisk marks phosphorothioate; unmarked linkages are phosphodiester. Other units and linkages are bracketed, terminal groups are in braces. A string of capitals states the bases alone. e = 2'-O-(2-methoxyethyl) (MOE); [5mC] = 5-methylcytosine

Answered examples (4):
substance="341806 (antisense GCCAATATTTCTGTGCTGCTA; all 2'-MOE, all phosphorothioate, methylation of C not given here) [compound 341806]" system_under_test=HSL endpoint_result="73.4 percentage of control"
substance="328115 (antisense eA*eG*eA*eA*eG*eG*eT*eG*eG*eG*eG*eA*eG*e[5mC]*eA*eG*e[5mC]*eG*eT*e[5mC]*eA) [compound 328115]" system_under_test=HSL endpoint_result="89.0 percentage of control"
substance="328104 (antisense eT*eA*eT*eG*eA*eT*eA*eG*e[5mC]*eT*eT*e[5mC]*e[5mC]*e[5mC]*e[5mC]*eA*eT*eG*eT*eA*eA) [compound 328104]" system_under_test=HSL endpoint_result="98.2 percentage of control"
substance="328106 (antisense eA*eT*eT*eG*eA*eT*eG*e[5mC]*eG*e[5mC]*e[5mC]*eA*eT*eT*eT*eG*eG*e[5mC]*e[5mC]*eT*eA) [compound 328106]" system_under_test=HSL endpoint_result="94.9 percentage of control"

GET HSL mRNA | system: HSL | item: 328108 (antisense eA*eA*eA*e[5mC]*eT*eT*eG*eT*eT*eA*eA*eT*eT*eG*eA*e[5mC]*eT*eG*eT*e[5mC]*eA) [compound 328108]
90.1 percentage of control

----------
Tested on: HSL
run.description: HSL mRNA expression in adipocytes (real-time PCR)
Assay type: cell-based, human
setup.conditions: differentiating adipocytes transfected with oligomeric compound; Table 75
Procedure: Expression of the four hallmark genes, HSL, aP2, Glut4, and PPARγ, is also measured in adipocytes transfected with oligomeric compounds of the invention. Cells are lysed on day nine post-transfection and total RNA is harvested. The amount of total RNA in each sample is determined using a Ribogreen Assay (Invitrogen Life Technologies, Carlsbad, Calif.). […]
In the oligonucleotide strings, read from the 5' end, every base follows the letter of its sugar. An asterisk marks phosphorothioate; unmarked linkages are phosphodiester. Other units and linkages are bracketed, terminal groups are in braces. A string of capitals states the bases alone. e = 2'-O-(2-methoxyethyl) (MOE); [5mC] = 5-methylcytosine
quantity.kind: HSL mRNA

Answered examples (5):
substance="328089 (antisense eA*e[5mC]*eT*eG*eT*eA*eG*eG*eA*eA*eT*eA*eT*eG*eT*eT*eT*eG*eA*eT*eA) [compound 328089]" endpoint_result="55 percentage of untreated control (UTC)"
substance="327929 (antisense eG*eA*eA*e[5mC]*eA*eG*eA*eT*eA*eG*eT*e[5mC]*eT*eA*eA*eA*e[5mC]*eA*e[5mC]*eT*eG*eG*eG) [compound 327929]" endpoint_result="68 percentage of untreated control (UTC)"
substance="346907 (AUGUAUGUGGGACGGUAAACCA; all 2'-MOE, all phosphorothioate, methylation of C and T or U not given here) [compound 346907]" endpoint_result="36 percentage of untreated control (UTC)"
substance="328135 (eA*e[5mC]*e[5mC]*eG*eA*eA*e[5mC]*eA*eA*eA*eG*eT*e[5mC]*eT*eG*eA*e[5mC]*eA*eG*eG*eA; anti-miR) [compound 328135]" endpoint_result="20 percentage of untreated control (UTC)"
substance="344613 (ACACCAAUGCCCUAGGGGAUGCG; anti-miR; all 2'-MOE, all phosphorothioate, methylation of C and T or U not given here) [compound 344613]" endpoint_result="46 percentage of untreated control (UTC)"

Determine its reported HSL mRNA: 327891 (antisense eG*eG*e[5mC]*e[5mC]*eG*eT*eG*eA*e[5mC]*eT*eG*eG*eA*eG*eA*e[5mC]*eT*eG*eT*eT*eA) [compound 327891]
52 percentage of untreated control (UTC)

Determine its reported HSL mRNA: 346915 (ACAUCGUUACCAGACAGUGUUA; all 2'-MOE, all phosphorothioate, methylation of C and T or U not given here) [compound 346915]
67 percentage of untreated control (UTC)

Determine its reported HSL mRNA: 348117 (GAACCCACAAUCCCUGGCUUA; all 2'-MOE, all phosphorothioate, methylation of C and T or U not given here) [compound 348117]
55 percentage of untreated control (UTC)

Determine its reported HSL mRNA: 328130 (antisense eA*e[5mC]*e[5mC]*eT*e[5mC]*eA*eG*eG*eT*eG*eG*eT*eT*eG*eA*eA*eG*eG*eA*eG*eA) [compound 328130]
64 percentage of untreated control (UTC)

Determine its reported HSL mRNA: 328094 (antisense eT*eT*eG*eT*eA*eA*eG*e[5mC]*eA*eG*eT*eT*eT*eT*eG*eT*eT*eG*eA*e[5mC]*eA) [compound 328094]
74 percentage of untreated control (UTC)

Determine its reported HSL mRNA: 346919 (CUACCUGCACGAACAGCACUUUG; all 2'-MOE, all phosphorothioate, methylation of C and T or U not given here) [compound 346919]
45 percentage of untreated control (UTC)

Determine its reported HSL mRNA: 346687 (AGCAAGCCCAGACCGCAAAAAG; all 2'-MOE, all phosphorothioate, methylation of C not given here) [compound 346687]
53 percentage of untreated control (UTC)
